Taken from PubChem BioAssay (NCI).

# Test system: MDA-MB-435
Please reply with one of these outcomes: active, inactive

Prompt line: Write down the call the test reported for this compound. Item: O=Cc1cn(Cc2cccc(Cl)c2)c2ccccc12
Response line: inactive

Prompt line: Outcome logged for COc1ccc(-c2cc(-c3ccccc3)nc(N3CCN(CCNc4ccnc5cc(Cl)ccc45)CC3)n2)cc1 in this assay:
Response line: inactive

Prompt line: How was CC(C)C[C@H](NC(=O)[C@H]1O[C@@H]1C(=O)O)C(=O)NCCc1ccc(O)cc1 classified in this test?
Response line: inactive

Could you now consider this next compound?
Prompt line: For this compound, state the assay outcome: COc1ccc(C(=O)/C=C/c2c(C(F)(F)F)nc3sccn23)cc1OC
Response line: inactive

====

# Test system: IGROV1 ovarian
# method: NCI tumour cell line growth inhibition, 48 h
readout.kind: TGI

For this compound ( O=C(O)C(O)Cc1ccccn1 (configuration not stated) ), measured TGI is > 100 µM

TGI reported for this compound CN(c1ccc(NC(=O)Nc2ccc(OC(F)(F)F)cc2)cc1)c1ccnc(Nc2cccc(S(N)(=O)=O)c2)n1 : 7.45 µM

The reported TGI of the compound Cc1cnc(/N=c2\sc(C)cn2-c2ncc(C)s2)s1 was > 100 µM

The recorded TGI for Cc1cc(C)c2c(c1)Nc1ccccc1P2c1ccccc1 (configuration not stated) is > 100 µM

// Nc1ccc(C(=O)NN2C(=O)C(Cl)C2c2cc(Br)ccc2O)cc1 (configuration not stated) : TGI value = 94.3 µM

The reported value for COc1cc(C[C@H]2C(=O)OC[C@@H]2Cc2ccc(OC)c(OC)c2)cc(OC)c1 in terms of TGI is > 100 µM

Please fill in: TGI reported for OCC1OC(NCCNCCNC2OC(CO)C(O)C(O)C2O)C(O)C(O)C1O (configuration not stated) = > 100 µM

====

# Tested on: SK-OV-3 ovarian
# method: NCI tumour cell line growth inhibition, 48 h
readout.kind: TGI

TGI reading for Cc1nn(-c2ccccc2)c2c1CC(=O)Nc1ccccc1-2 : 43.8 µM

The measured TGI associated with CC(O)(/C=C/c1ccccc1)P(=O)(O)c1ccccc1 (stereo unspecified) reads > 100 µM

Reported TGI ( O=C1NCCCC12CCCNC2=O ) = > 100 µM

Memo: Cc1ccc(NC(=O)c2cc3ccccc3c(N=Nc3ccccc3O)c2O)c(C)c1 , reported TGI: 16.7 µM

Form field TGI, entry O=c1c(Sc2c(O)c3ccccc3c3ccccc3c2=O)c(O)c2ccccc2c2ccccc12 : > 100 µM

// recorded TGI for O=C1c2cc3c(cc2CC12Cc1cc4c(cc1C2=O)CCC4)CCC3 : > 100 µM

Entry O=c1[nH]nc2ccccc2c1Cl — recorded TGI = 33.5 µM

In plain terms, CCOP1(=O)C=C(Sc2ccc([N+](=O)[O-])cc2[N+](=O)[O-])C(C)(C)O1 (stereo unspecified) has a documented TGI of 66.2 µM

====

Overview of reported TGI across a group of compounds:
# Tested on: EKVX NSCLC
# method: NCI tumour cell line growth inhibition, 48 h

Example compounds with recorded TGI:
// TGI value for NC(=O)NO : > 2460 µM

The compound listed as O=C(N/N=C/c1ccc([N+](=O)[O-])cc1)c1cccc2nc3ccccc3nc12 has a reported TGI of > 100 µM

# TGI (compound: O=c1c2cccc3cccc(c4oc5c6cccc7cccc(c(=O)c5c14)c76)c32 ) is 23.3 µM

Record CC(O)(/C=C/c1ccccc1)P(=O)(O)c1ccccc1 (stereo unspecified) . Reported TGI: > 100 µM

Next:
Per the records, this compound ( c1cc(CSP234N5CCN2CCN3CCN4CC5)ccc1CSP123N4CCN1CCN2CCN3CC4 ) has TGI equal to > 100 µM

Lab note: C=C1CC2(C[C@@H](c3ccccc3)O[C@@H](c3ccccc3)C2)OC1=O (stereo partly specified) gave TGI of 25.7 µM

====

# Test system: PC-3 prostate
# method: NCI tumour cell line growth inhibition, 48 h
Entries annotated with measured TGI

The examples below pair each entry with its known result.
Given item O=c1c2c(c1=O)C1(SCCCS1)c1cc(Cl)ccc1O2 , the value recorded as its TGI is > 100 µM

response.value for Cc1nc(Nc2ccc(F)cc2)c2sc(=S)n(-c3ccc(F)cc3)c2n1 (field: TGI) = 35.6 µM

What the record says about CN(C)CCCNc1ncnc2nc[nH]c12 : TGI is > 100 µM

// TGI value for COc1ccc(C2C3CCc4ccccc4C3=NN2S(=O)(=O)c2ccc(Cl)cc2)cc1 (stereo not given) : > 100 µM

Form: compound = COc1ccc2c(c1)c(-c1nc(-c3c[nH]c4ncccc34)cs1)cn2CCCCN1CCOCC1 ; TGI = 4.26 µM

Next:
Given item C=CCNCCCN1C(=O)c2ccc3c4c(ccc(c24)C1=O)C(=O)N(CCCNCC=C)C3=O , the value recorded as its TGI is 11 µM

Just so you know, measured TGI for COc1cc(C(O)c2nc3ccccc3s2)cc(OC)c1OC (stereo not given) came out at > 100 µM

For reference, reported TGI for CCN(CCNc1ccc(C)c2sc3cc(Cl)ccc3c(=O)c12)CC(C)O (stereo not given) stands at 3.31 µM

Quick note, TGI for CCOP(=O)(OCC)C(Nc1cccc([N+](=O)[O-])c1)c1ccccc1 (stereo not given) landed at > 100 µM

Measured TGI, C=C[C@H]1CC[C@H]2[C@@H]3CC=C4C[C@@H](OC5OCC(O)C(O)C5O)CC[C@]4(C)[C@H]3CC[C@]12C (stereo not given in full) : 37.7 µM

Input C[C@]12CC[C@@H]3c4ccc(O)cc4CC[C@H]3[C@@H]1CC[C@@H]2NS(=O)(=O)c1cccc(C(F)(F)F)c1 . Output TGI: 13.9 µM

Short answer for COc1ccc(N=Nc2ccc3oc(=O)c(C(=O)Nc4ccccc4)cc3c2)cc1 : TGI was > 10 µM

Record summary for CC(O)(/C=C/c1ccccc1)P(=O)(O)c1ccccc1 (stereo not given) : reported TGI = > 100 µM

TGI in this record for c1ccc(-c2ccc(-c3cc4ccccc4[nH]3)cc2)cc1 : > 100 µM

Data point: COc1ccc2oc(=O)cc(C)c2c1 ; TGI = > 100 µM

The compound identified as CCN(CC)c1ccc(C2SCC(=O)N2c2ccc(NC(=O)c3ccc(N4C(=O)CSC4c4ccc(N(CC)CC)cc4)cc3)cc2)cc1 (stereo not given) registered its TGI at > 100 µM

TGI reading for CC1=C(O)C(=O)C[C@]2(C)[C@H]3CC=C4[C@@H]5CC(C)(C)CC[C@@H]5C(=O)[C@H](O)[C@@]4(C)[C@]3(C)CC[C@@H]12 : > 50 µM

====

Attribute: TGI
# System: DLD-1 colon
# method: NCI tumour cell line growth inhibition, 48 h

Guide cases for TGI, answers given:
response.value for OCC(O)C(OC1OC(CO)C(O)C(O)C1O)c1nn(-c2ccccc2)c2nc3cc(Cl)c(Cl)cc3cc12 (stereo not drawn) (field: TGI) = > 100 µM

The molecule identified as COc1ccc(C(Cc2cc(OC)c(OC)c(OC)c2)C(=O)O)cc1 (stereo not drawn) registered its TGI at > 100 µM

TGI measured on COc1ccc(N(C)Sc2ccccc2)cc1 = > 100 µM

Continuing:
// TGI lookup, molecule = CCc1ccccc1N1CCN(C(=O)c2cc(OC)c(OC)c(OC)c2)CC1 , result: > 100 µM

For this molecule ( COc1ccc2cc1Oc1ccc(cc1)C[C@@H]1c3cc(c(OC)cc3CCN1C)Oc1c(OC)c(OC)cc3c1[C@@H](C2)N(C)CC3 ), measured TGI is 71.6 µM

For CN(C(=O)c1ccc(Cl)cc1)C(=S)N1CCN(c2ccccn2)CC1 the molecule record lists TGI as > 100 µM

Sure, the documented TGI for O=c1c(Sc2c(O)c3ccccc3c3ccccc3c2=O)c(O)c2ccccc2c2ccccc12 is > 100 µM

The molecule listed as Nc1ncnc2c1ncn2CC(O)C(=O)O (stereo not drawn) shows TGI equal to > 100 µM

Field TGI (entry C=C1C(=O)OC2C1CC[C@H](C)C13OC(=O)CC1[C@@]23C (stereo partly drawn) ) reads > 100 µM

====

# System: SF-295 CNS
# method: NCI tumour cell line growth inhibition, 48 h
readout.kind: TGI (µM)
API: value field is a number in µM; no unit string.

// field: TGI; key: CS/C(=N\C(=S)Nc1ccccc1)Nc1ccccc1 ; value = 97

For reference, reported TGI for COc1ccc(C(Cc2cc(OC)c(OC)c(OC)c2)C(=O)O)cc1 (configuration not stated) stands at 84.8

====

# Tested on: HCT-116 colon
# method: NCI tumour cell line growth inhibition, 48 h; in the data active = GI50 below about 0.43 µM; inactive = the rest
Output constraint: value belongs to active, inactive

Some solved entries appear below for comparison.
Prompt line: Per the assay record, what outcome was assigned to CC(CN1CCN(C)CC1)CN1c2ccccc2Sc2ccc(C(F)(F)F)cc21 (stereo unspecified) ?
Response line: inactive

Prompt line: I would be grateful if you could indicate the recorded call for CC1=CCC(OC(=O)C(C)(C)CCC(O)(C(=O)OC2(C(C)C)CCC3(C)OC3C2)C(C)C)(C(C)C)CC1 (stereo unspecified) .
Response line: active

Prompt line: What did the test return for O=C1CC(c2ccc3c(c2)OCO3)Nc2cc3c(cc21)OCO3 (stereo unspecified) ?
Response line: inactive

Prompt line: Called result for CN1CCN(c2nc(NCCCCNc3ccnc4cc(Cl)ccc34)c3ccccc3n2)CC1
Response line: inactive

Prompt line: Recorded test call requested for COc1ccc(C(=O)COc2cccc(/C=C3\CSc4ccccc4C3=O)c2)cc1
Response line: inactive

Next:
Prompt line: Field: outcome | Entry: N#Cc1cccc(C(=O)Nc2cccc(NC(=O)c3cccc(C#N)c3)c2)c1
Response line: inactive

Prompt line: Give the logged outcome of this assay for the following molecule: O=C(CCCCCCSc1nc(-c2ccccc2)cc(-c2ccccc2)n1)NO
Response line: inactive

Prompt line: Which result was noted for this molecule in the test: [C-]#[O+].[C-]#[O+].[C-]#[O+].[C-]#[O+].[Ir].[Ir].[O-]c1ccc2ccccc2c1C=Nc1ccc(N=Cc2c([O-])ccc3ccccc23)cc1
Response line: inactive

Prompt line: How was O=C1c2ccc3c4c5ccc(c24)C(=O)N1CCCOCCCCOCCCNCc1ccc(cc1)CNCCCOCCCCOCCCN(C3=O)C5=O classified in this test?
Response line: inactive

Prompt line: Any idea what this test logged for Cc1ccc(/C=C2/SC(Nc3nc(-c4nc(NC5=NC(=O)/C(=C\c6ccc(C)cc6)S5)sc4C)c(C)s3)=NC2=O)cc1 ?
Response line: inactive

Prompt line: Entry C=CC1=C[C@@H]2[C@@H]3O[C@]4(CC[C@H](O4)[C@@H](C)C[C@@H](O)C3=O)C[C@H](O)C3=NCC[C@@]32CC1 : call = ?
Response line: active
